system: Plasmodium falciparum; assay: Confirmatory screen in NF54 nanoGlo assay, in single point, at 2uM, 72h; type: functional, Erythrocyte; details: timepoint 72 hour
Screen size: about 4,800 compounds; about 420 (8.8%) showed an effect of 50% or more. Many of the other results were omitted from the sample, so strong results are more common in it than they were.
In this section we review reported % Inhibition values for a set of compounds.

compound: CCC[C@H]1C(=O)NCCN1C(=O)c1cnn(CC2CCOCC2)c1C
% Inhibition: 8%
--
compound: COCc1cc(C(=O)N[C@H](c2ccccc2)C2CCOCC2)no1
% Inhibition: 0%
--
compound: CCc1nc2cc(N3CCC(C(=O)Nc4ccc5c(c4)OCO5)CC3)cnc2nc1CC
% Inhibition: 61%
--
compound: CC1=CCN(C(=O)Nc2nccs2)CC1
% Inhibition: 7%
--
compound: Cn1cc(C(=O)NCC2CCN(S(=O)(=O)c3cccs3)CC2)cn1
% Inhibition: -2%
--
compound: COc1ccc(-c2[nH]ncc2C(=O)NCC2CCCCC2)cc1OC
% Inhibition: 2%
--
compound: Cc1cc(C(=O)NCC[C@H](C)n2nc(C)cc2C)c2c(-c3ccc(F)cc3)noc2n1
% Inhibition: -9%
--
compound: Cc1cccc(-c2nc3nc(C)c(CC(=O)N4CCCCC4)c(C)n3n2)c1
% Inhibition: 1%
--
compound: N#CC1(C#N)C(c2ccc(Cl)cc2)C1(C#N)C#N
% Inhibition: 11%
--
compound: Cc1cc(S(=O)(=O)NC(=O)c2ccnc(C3CCCC3)n2)c(C)s1
% Inhibition: -2%
--
compound: Cc1ccc(C(=O)OCC(=O)Nc2ccc3c(c2)OCO3)cn1
% Inhibition: -2%
--
compound: CC(C)n1[nH]c(=O)c2c(C3CCCCC3)c3sc(=O)[nH]c3nc21
% Inhibition: -3%
--
compound: COc1ccc([C@H](C(=O)Nc2ccc(N(C)C)cc2)N(Cc2ccccc2)C(=O)Cc2ccccc2)cc1OC
% Inhibition: -4%
--
compound: COc1ccc(C(=O)N[C@@H](C(=O)Nc2ccccc2C)c2ccc(Cl)cc2)cc1
% Inhibition: 7%
--
compound: Cc1nn(-c2nc3ccccc3[nH]2)c(O)c1Cc1ccccc1
% Inhibition: 2%
--
compound: Cc1ccc(C(=O)N2CC(n3cnnc3C)C2)cc1F
% Inhibition: -19%
--
compound: COc1nc(-c2cccc(C(=O)NCC3CCOCC3)c2)ncc1F
% Inhibition: 66%
--
compound: CC(C(=O)Nc1nccs1)N1CCCC(c2ccn[nH]2)C1 (centres undefined)
% Inhibition: 50%
--
compound: COc1ccc(C(=O)N2CC[C@H](c3nc(C4CCOCC4)no3)C2)cc1OC
% Inhibition: 2%
--
compound: COCc1c(Br)c(C)nc(O)c1C#N
% Inhibition: -8%
--
compound: COc1ccc(N2CCN(Cc3c(O)nc(O)c(C#N)c3C)CC2)cc1
% Inhibition: -3%
--
compound: CCc1nc(C)nc(N2CCN(C[C@H](O)COc3ccccc3C)CC2)c1Cc1cccc(C)c1
% Inhibition: 7%
--
compound: COc1cc(OC)c(NC(=O)[C@H]2CCCN(c3nc4ccccc4[nH]c3=O)C2)cc1Cl
% Inhibition: -2%
--
compound: Cc1c(C2=NO[C@H]3C(=O)N(c4ccc5ccccc5c4)C(=O)[C@@H]23)cnn1C
% Inhibition: 0%
--
compound: O=C(Cc1cccs1)Nc1ncc(Cc2ccccc2)s1
% Inhibition: 4%
--
compound: CCOc1cc(Cl)ccc1C(=O)NC1CCN(C[C@H]2CCOC2)CC1
% Inhibition: 1%
--
compound: CCC(C(=O)Nc1ccc2c(c1)CN(CCc1ccc(OC)c(OC)c1)C(=O)C(C)O2)c1ccccc1 (centres undefined)
% Inhibition: 94%
--
compound: O=C(COCC(=O)Nc1cccc(Cl)c1Cl)NCCC1=CCCCC1
% Inhibition: -3%
--
compound: Cn1ccc(NC(=O)c2n[nH]c3ccccc23)n1
% Inhibition: -12%
--
compound: C[C@H](C(=O)NCc1cc(F)cc(F)c1)C1CCOCC1
% Inhibition: -5%
--
compound: COc1cc(NC(=O)N[C@@H](C)C(=O)N2CCc3ccccc32)cc(OC)c1
% Inhibition: 4%
--
compound: CC(C(=O)Nc1cc(F)ccc1F)N1CCCC(c2nncn2C(C)C)C1 (centres undefined)
% Inhibition: -3%
--
compound: Cn1cc(N)c(Oc2ccc3c(c2)OCO3)n1
% Inhibition: 0%
--
compound: Oc1cc(-c2ccc(F)cc2)nn1-c1nc2ccccc2[nH]1
% Inhibition: -9%
